molecular target: SfurOBP2 (Sogatella furcifera, UniProt V5T759); assay: biochemical; assay type: binding; conditions: ligand concentration 14 (unit not given), replicate column 2 of 3
Sequence (V5T759 entry or part of it): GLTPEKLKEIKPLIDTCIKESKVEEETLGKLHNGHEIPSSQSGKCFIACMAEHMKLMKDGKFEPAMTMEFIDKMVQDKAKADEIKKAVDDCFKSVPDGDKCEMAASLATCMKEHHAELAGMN
# binarize Fluorescence competitive binding assay, OBP2 (raw fluorescence reading): threshold 20000 inclusive, high side satisfied, low side not satisfied

Use these answered entries as a reference point.
CCCCCCCCCCCCCC [n-tetradecane] : satisfied
CC(C)COC(=O)CCCCC(=O)OCC(C)C [DA(diisobutyl adipate)] : not satisfied
CCCCCCCC [n-octane] : not satisfied

Record C[C@@H]1CC[C@H]2C(C)(C)[C@H]3C[C@@]12CC[C@@]3(C)O [cedrol] ; criterion: Fluorescence competitive binding assay, OBP2 (raw fluorescence reading) no lower than 20000. Met?
satisfied

Fluorescence competitive binding assay, OBP2 (raw fluorescence reading) >= 20000 for C=CC(C)(O)CCC=C(C)CCC=C(C)C (mixture of isomers) [nerolidol] ?
not satisfied

Check this compound for Fluorescence competitive binding assay, OBP2 (raw fluorescence reading) at or above 20000: CCCCCCCCC=O [nonanal]
not satisfied

Is reported Fluorescence competitive binding assay, OBP2 (raw fluorescence reading) greater than or equal to 20000 here: CCCCCC=O [caproaldehyde]
not satisfied

Please check the record CCCCCCCCCCCCCCCCCC [n-octadecane] and state if its Fluorescence competitive binding assay, OBP2 (raw fluorescence reading) is at or above 20000.
satisfied
